tested on: K4 kissing-loop RNA reporter; test: apparent KD of K4 kissing-loop reporter; higher = weaker reporter binding; conditions: Eterna round: R107; input ligand: arginine 13.2 mM;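 further: bound reporter read as fluorescence of individual clusters on recovered sequencing chips by microscopy, with normalized cluster intensities fitted with a binding model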
# key: entry, value: apparent KD of K4 kissing-loop reporter
All answers are understood in nM, so give the number only.

item_sequence	apparent KD of K4 kissing-loop reporter / nM
GCAAAGUGUCAUAUUAUCUAGCAGCUGCGAAAGGAUAUGAGAGUGCUCAGAAGGUUCUUGGCGGAGUGAUGUUCCGCGUAAAUGG [theeternabot_exclusion_KL_FMN_A_22]	93.8
AUUUUUUUAUCAGGAUAUUAGUGUUGGUUUGUUUUGUUAGUGAUGUUGAUAUUUGUUUUAUGUAUUUAAGAAGGGAUUGUGAUGU [huupullin]	371
UCGAAGGAUGGAAGGAGCGCUCGUCAGUCCUGCGAGUGAUGUUCGUGGGUAAAUAUUCGCGAGCAGGUAGGUCGCCAUCUUGAGA [Laatla]	96.7
UUAGAGAUCUCAGGAUAUCAGUGAUGUUGGUUUCCAGAUCUGAGAUAGAAUUCUAUCUCAGAUCAAUGAGAAGGGAGAUCUCAUU [AK4.1 Exc FMN B]	128
GUAUCGCUAGGAGGAUAUUUCAUAUAACAUAUAAAUGGAUAUGCGGAGUGAUGUUCCGAUUUACGGAAAGAAGGCCUAGUGAUAC [FMN B 19]	172
GUAUUGUGAAUGGAUACCAGACACCCGAGUGAUGUUCGGAGCAGAGUGAUGUUCUAAUAAGUCCCUUGGCAGCCGGAAGCAGCCG [Same State Theophylline B GF 3]	296
AUCGUUGUCUGAGGAUAUCGGUUAUCUGUAGUGAUGUUACAGUAUAUUGAUAUUAAAGAUUCUAUUCGAGAAGGCAGACAACGUA [JR_Nu3_ExcFMNB_Sub023]	62.7
UCCGGUCGGUGAGCCAGUGAUGUUGGUCAGAAGGAUAUCUGGCAACAGAGAAGGUCUGCAUCAGCCUAGAUAUCCUGGCGACCGG	91.4
ACGACGCAUAGUGAUACCAGCAUUAUAUGAGUGAUGUUCUACCUAAAAUGGUAAUAAUGAUGCCCUUGGCAGCACUAUGCGUCAG [KL-SSTheoB2]	453
AUGCUUAUAAUAACACUAUAUACAACUGAAGGAGCGACAAUAAAGUCAGGUAGGUCGCAGAAUAAAUGAGUGAUGUUCAUUUUUA [JR_ExcArginiA_Sub010]	138

Ask: I have this sequence here, ACGUGUCACUGAAGGAGCGUCUACCGAAUACGAGUGAUGUUCGUACACCACUGAUAUAGUGGACAGGUAGGUCGCAGUGAUACGU [Arg B Ex t3] , and I need its recorded apparent KD of K4 kissing-loop reporter.
Reply: 101

Ask: And for `UUUUUUAGUUGAGUUAUACAUAGCGGACUAUAGGAUAUCUAGAAAUAGAGAAGGAUAAGAGUGAUGUUCUUAUUCAACUAUAGUG` ?
Reply: 87.4

====

test system: MS2 coat protein; test: apparent KD of MS2 coat protein; designed switch direction (-1 OFF switch, 1 ON switch): -1; higher = weaker reporter binding; conditions: input ligand: FMN 200 uM
parameter_measured: apparent KD of MS2 coat protein

Ask: I have this sequence here, AAUAACAAGCCGAUCCUCCACAUGAGGAUCACCCAUGUGUUCGUCUUGUAAAGUACUAUCACGAAAGUGAUAGUACA (Eterna round: R97, puzzle: Sensor, turn-off variant 1) , and I need its recorded apparent KD of MS2 coat protein.
Reply: 23 nM

Ask: And for UAAUAUCUGCAGGAUAUCGGUGUAGCACGCGUAUGAGAAGGGCAGACAUGAGGAUCACCCAUGUAUAGGGUCCG [BotMod 1 - Jieux - Exclusion 6] (Eterna round: R97, puzzle: Exclusion 6) ?
Reply: 246 nM

Ask: And for GGUCAGACGGUAGGAUAUCCAUAUCGAGUGACCCUUUUAUAACAUGAGGAUCACCCAUGUCGGUGGGAGAAGGGCCGUACGGCG [salish99_ExNG02_R04_003] (Eterna round: R96, puzzle: Exclusion NG 2) ?
Reply: 445 nM

Ask: And for ACAUGAGGAUCACCCAUGUGAAAACAAUGGCUGACACAGAGAUAGGAUAUAUGUGCAUAUCAAACAUAGAAGGGUCAUUACUGG [Deportation 86 - Jieux - Exclusion NG 3] (Eterna round: R96, puzzle: Exclusion NG 3) ?
Reply: 42.6 nM
